- experiment summary: Single oral dose plasma PK in fasted dogs
- Format: in vivo, dog
- protocol conditions: female, beagle, dog, plasma, po, 480 mg/kg, 2F, 480 mg/kg PO, PEG400/PVP VA 90:10 solution, Study 7, Tlast = 96 hours
reported endpoint: AUC(0-t) (µg·h/mL)
Could you give me the number in µg·h/mL? Just the number is fine.

Could you tell me which AUC(0-t) is on file for O=C(Nc1ccnc(C(F)(F)F)c1)c1cnn(-c2cccc3c(=O)[nH]ccc23)c1C(F)(F)F ?
1510

====

- experiment summary: Single oral dose plasma PK in fasted dogs
- Format: in vivo, dog
- protocol conditions: female, beagle, dog, plasma, po, 100 mg/kg, 2F, 100 mg/kg PO, 100% PEG400 solution, Study 7
reported endpoint: AUC(0-inf) (µg·h/mL)
Value expressed in µg·h/mL; do not type the unit.

Reported AUC(0-inf), molecule O=C(Nc1ccnc(C(F)(F)F)c1)c1cnn(-c2cccc3c(=O)[nH]ccc23)c1C(F)(F)F [Compound A] : ____
1360

====

- experiment summary: Oral bioavailability, 5 mg/kg solution in PEG400
- Type: in vivo, mice, rats, dogs, and monkeys
- protocol conditions: Sprague-Dawley, rat, plasma; rats, oral 5 mg/kg
- Source text: (Data for mice, rats, and monkeys are not shown.)
reported endpoint: bioavailability (%)
Supply the numeric figure in %, leaving out any unit text.

Query (compound): O=C(Nc1ccnc(C(F)(F)F)c1)c1cnn(-c2cccc3c(=O)[nH]ccc23)c1C(F)(F)F ; field requested: bioavailability
51.2

====

- experiment summary: Serum and tumor levels after multiple oral doses in male OCI-LY3 tumor-bearing NSG mice
- Format: in vivo
- protocol conditions: male, NSG, mouse, serum, oral, 10 mg/kg, 10 mg/kg twice daily PO, Day 1 following first dose, 7 h post dose; mean (SD)
reported endpoint: concentration at 7 h (µg/mL)
Express it in µg/mL; write the number only.

What does the record list as concentration at 7 h for O=C(Nc1ccnc(C(F)(F)F)c1)c1cnn(-c2cccc3c(=O)[nH]ccc23)c1C(F)(F)F ?
3.26

====

- experiment summary: FIH study 67856633LYM1001 plasma pharmacokinetics
- Format: in vivo, human
- protocol conditions: human, plasma, oral, 400 mg, Cycle 2 Day 1, 50 mg capsule, cohort 8 × 50 mg; mean; read-out: Cmax
reported endpoint: Cmax (µg/mL)
Give a bare numeral; the unit µg/mL is implied.

Look at this molecule and give its reported Cmax. O=C(Nc1ccnc(C(F)(F)F)c1)c1cnn(-c2cccc3c(=O)[nH]ccc23)c1C(F)(F)F
94.1

====

- experiment summary: Single oral dose plasma PK in fasted dogs
- Type: in vivo, dog
- protocol conditions: female, beagle, dog, plasma, po, 480 mg/kg, 2F, 480 mg/kg PO, PEG400/PVP VA 90:10 solution, Study 7; median
reported endpoint: Tmax (h)
Please reply with the bare figure in h and do not write the unit itself.

Which Tmax is listed for O=C(Nc1ccnc(C(F)(F)F)c1)c1cnn(-c2cccc3c(=O)[nH]ccc23)c1C(F)(F)F ?
27.5

====

- experiment summary: FIH study 67856633LYM1001 plasma pharmacokinetics
- Assay type: in vivo, human
- protocol conditions: human, plasma, oral, Cycle 2 Day 1, cohort 8 × 50 mg > 6 × 50 mg, Subject 100070 excluded; median; read-out: Tmax
- Description: The study consists of a dose escalation phase (Part 1), to determine the recommended Phase 2 dose(s) (RP2D[s]), followed by an expansion phase at the RP2D(s) (Part 2). The dose escalation phase is supported using an adaptive dose escalation strategy guided by the modified continual reassessment method (mCRM) based on a Bayesian Logistic Regression Model (BLRM) with escalation with overdose control (EWOC) principle. […]
reported endpoint: Tmax (h)
Dear colleague, please return just the value in h, with no unit written.

Entry O=C(Nc1ccnc(C(F)(F)F)c1)c1cnn(-c2cccc3c(=O)[nH]ccc23)c1C(F)(F)F [Compound A] : reported Tmax = ?
3

====

- experiment summary: FIH study 67856633LYM1001 plasma pharmacokinetics
- Type: in vivo, human
- protocol conditions: human, plasma, oral, 400 mg, Cycle 1 Day 1, 200 mg capsule, cohort 2 × 200 mg food adlib; median; read-out: Tmax
reported endpoint: Tmax
Just the number plus its unit, please.

Query: Tmax; subject: O=C(Nc1ccnc(C(F)(F)F)c1)c1cnn(-c2cccc3c(=O)[nH]ccc23)c1C(F)(F)F
4.5 h

====

- experiment summary: Serum concentration after 28 days of oral dosing in male OCI-LY3 tumor-bearing NSG mice
- Type: in vivo
- protocol conditions: mouse, 60 mg/kg QD PO 28 days, 24 h post last dose, mean
reported endpoint: concentration at 24 h (ng/mL)
Kindly answer with a numeric value in ng/mL, unit omitted.

Find the recorded concentration at 24 h belonging to O=C(Nc1ccnc(C(F)(F)F)c1)c1cnn(-c2cccc3c(=O)[nH]ccc23)c1C(F)(F)F [Compound A] and report it.
2510

====

- experiment summary: Serum and tumor levels after multiple oral doses in male OCI-LY3 tumor-bearing NSG mice
- Assay type: in vivo
- protocol conditions: male, NSG, mouse, serum, oral, once daily PO, dose not printed in Table 8 (first group; b301: 60 and 100 mg/kg), Day 1, 4 h post dose; mean (SD)
reported endpoint: concentration at 4 h (ng/mL)
Just the number in ng/mL, nothing appended.

I'd like to know its concentration at 4 h. The compound in question is O=C(Nc1ccnc(C(F)(F)F)c1)c1cnn(-c2cccc3c(=O)[nH]ccc23)c1C(F)(F)F
15000

====

- experiment summary: Serum concentration after 28 days of oral dosing in male OCI-LY3 tumor-bearing NSG mice
- Assay type: in vivo
- protocol conditions: mouse, 3 mg/kg BID PO 28 days, 8 h post last dose, mean, N = 2
reported endpoint: concentration at 8 h (ng/mL)
Answer in ng/mL, number only, no unit symbol.

// returns reported concentration at 8 h for input O=C(Nc1ccnc(C(F)(F)F)c1)c1cnn(-c2cccc3c(=O)[nH]ccc23)c1C(F)(F)F [Compound A]
2680

====

- experiment summary: Single oral dose plasma PK in fasted dogs
- Format: in vivo, dog
- protocol conditions: male, beagle, dog, plasma, po, 5 mg/kg, 3M, 5 mg/kg PO, -ZAF salt nanosuspension (HPMC:DOSS suspension), Study 5
reported endpoint: AUC(0-t)
Answer by giving the amount and then stating its unit.

Request the reported AUC(0-t) associated with O=C(Nc1ccnc(C(F)(F)F)c1)c1cnn(-c2cccc3c(=O)[nH]ccc23)c1C(F)(F)F [Compound A]
43700 ng·h/mL

====

- experiment summary: FIH study 67856633LYM1001 plasma pharmacokinetics
- Assay type: in vivo, human
- protocol conditions: human, plasma, oral, 50 mg, Cycle 1 Day 1, 50 mg capsule, cohort 50 mg; mean; read-out: AUCτ
- Source text: The study consists of a dose escalation phase (Part 1), to determine the recommended Phase 2 dose(s) (RP2D[s]), followed by an expansion phase at the RP2D(s) (Part 2). The dose escalation phase is supported using an adaptive dose escalation strategy guided by the modified continual reassessment method (mCRM) based on a Bayesian Logistic Regression Model (BLRM) with escalation with overdose control (EWOC) principle. […]
reported endpoint: AUC (ng·h/mL)
Numeric only. Scale: ng·h/mL

May I ask what AUC has been recorded for O=C(Nc1ccnc(C(F)(F)F)c1)c1cnn(-c2cccc3c(=O)[nH]ccc23)c1C(F)(F)F [Compound A] ?
29100

====

- experiment summary: Single oral dose plasma PK in fasted dogs
- Assay type: in vivo, dog
- protocol conditions: female, beagle, dog, plasma, po, 560 mg/kg, 2F, 560 mg/kg PO, 100% PEG400 solution, Study 7
reported endpoint: Cmax (ng/mL)
Field: numeric (ng/mL). Do not append units.

Item O=C(Nc1ccnc(C(F)(F)F)c1)c1cnn(-c2cccc3c(=O)[nH]ccc23)c1C(F)(F)F has what recorded Cmax?
31800

====

- experiment summary: Serum and tumor levels after multiple oral doses in male OCI-LY3 tumor-bearing NSG mice
- Assay type: in vivo
- protocol conditions: male, NSG, mouse, tumor and serum; 30 mg/kg twice daily PO, Day 5, 12 h post dose; mean (SD); read-out: Tumor: serum ratio
reported endpoint: Kp at 12 h
Form field (numeric): enter value without unit.

GET /values?readout=Kp at 12 h&item= O=C(Nc1ccnc(C(F)(F)F)c1)c1cnn(-c2cccc3c(=O)[nH]ccc23)c1C(F)(F)F
1.3

====

- experiment summary: FIH study 67856633LYM1001 plasma pharmacokinetics
- Format: in vivo, human
- protocol conditions: human, plasma, oral, 400 mg, Cycle 1 Day 1, cohort 8 × 50 mg > 6 × 50 mg (400 mg QD loading 14 days then 300 mg QD); median; read-out: Tmax
- From the text: The study consists of a dose escalation phase (Part 1), to determine the recommended Phase 2 dose(s) (RP2D[s]), followed by an expansion phase at the RP2D(s) (Part 2). The dose escalation phase is supported using an adaptive dose escalation strategy guided by the modified continual reassessment method (mCRM) based on a Bayesian Logistic Regression Model (BLRM) with escalation with overdose control (EWOC) principle. […]
reported endpoint: Tmax (h)
Give the quantity in h, number only.

Bench note: what Tmax did O=C(Nc1ccnc(C(F)(F)F)c1)c1cnn(-c2cccc3c(=O)[nH]ccc23)c1C(F)(F)F show?
3
